procedureSummary: Cytotoxicity against human IGROV cells
Type: functional
particulars: read-out: ED50 (the source's name)
parameterMeasured: EC50 (nM)

smilesrepr=C/C1=C/C=C(\C(C)C)C(=O)[C@@H](O)[C@H](C)CCC(=O)[C@H](CO)CCC1 reportedvalue=90.3
